FYI, the data here is from patent US20160130226A1.

Biological target: AMPK beta 1 (Homo sapiens, UniProt Q13131+Q9Y478)
Construct: in-cell-ELISA for phospho-ACC (Acetyl-CoA carboxylase 1) in HepG2 cells (liver); endogenous in cells; host or cells: HepG2 (assignment to the beta 1 column inferred)
Sequence (Q9Y478 2-270 limits assumed): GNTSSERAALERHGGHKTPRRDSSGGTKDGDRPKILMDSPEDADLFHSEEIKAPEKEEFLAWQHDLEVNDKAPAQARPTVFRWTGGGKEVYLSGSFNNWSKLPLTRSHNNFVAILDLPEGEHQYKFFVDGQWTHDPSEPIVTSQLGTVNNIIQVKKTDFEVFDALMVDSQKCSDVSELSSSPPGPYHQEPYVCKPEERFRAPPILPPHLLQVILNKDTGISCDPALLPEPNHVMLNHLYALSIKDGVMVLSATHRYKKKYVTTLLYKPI
Sequence (Q13131 whole entry): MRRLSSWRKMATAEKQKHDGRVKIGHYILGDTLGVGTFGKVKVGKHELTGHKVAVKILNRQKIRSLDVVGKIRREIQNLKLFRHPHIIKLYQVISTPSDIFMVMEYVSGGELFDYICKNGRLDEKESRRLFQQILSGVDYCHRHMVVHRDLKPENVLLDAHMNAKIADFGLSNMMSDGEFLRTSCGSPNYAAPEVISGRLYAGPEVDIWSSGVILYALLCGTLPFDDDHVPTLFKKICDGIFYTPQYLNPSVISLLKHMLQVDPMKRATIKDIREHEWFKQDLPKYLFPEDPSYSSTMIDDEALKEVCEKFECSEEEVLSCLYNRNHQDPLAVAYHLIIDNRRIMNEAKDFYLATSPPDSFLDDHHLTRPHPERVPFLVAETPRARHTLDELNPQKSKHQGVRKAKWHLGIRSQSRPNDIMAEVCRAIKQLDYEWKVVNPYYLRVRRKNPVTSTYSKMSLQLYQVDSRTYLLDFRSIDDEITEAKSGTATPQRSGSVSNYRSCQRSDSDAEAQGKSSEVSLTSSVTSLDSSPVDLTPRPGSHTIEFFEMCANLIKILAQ
Sequence (P54619 whole entry partner): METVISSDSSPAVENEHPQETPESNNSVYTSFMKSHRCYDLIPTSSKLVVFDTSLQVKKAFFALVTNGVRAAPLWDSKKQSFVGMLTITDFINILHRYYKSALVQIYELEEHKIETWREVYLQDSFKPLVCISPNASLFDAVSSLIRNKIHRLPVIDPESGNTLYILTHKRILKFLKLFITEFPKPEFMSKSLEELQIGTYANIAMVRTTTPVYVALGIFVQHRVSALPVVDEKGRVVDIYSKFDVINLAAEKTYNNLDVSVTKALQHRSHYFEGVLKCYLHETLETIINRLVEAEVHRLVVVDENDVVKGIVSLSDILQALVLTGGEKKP
Test: in-cell-ELISA for phospho-ACC: activation of AMPK, beta 1 (HepG2 cells / C2C12 myotubes)
Type: cell-based
Details: 1 μM, 2 h, percentage activation over vehicle control
Attribute: Percentage activation of beta 1 at given concentration
Numbers only here, please. The scale is % at 1 μM.

Solved cases below.
Look up and report measured Percentage activation of beta 1 at given concentration for this entry: CC(C)(C(=O)O)c1ccc(C2CC23C(=O)Nc2cc(F)c(-c4ccc(-c5ccc(-n6cncn6)cc5)cc4)cc23)cc1 (stereo not shown) [Example 162]
61

Look up and report measured Percentage activation of beta 1 at given concentration for this entry: Cc1ccc(C2CC23C(=O)Nc2cc(F)c(-c4ccc(-c5ccc(-n6cncn6)cc5)cc4)cc23)cc1C(=O)O (stereo not shown) [Example 148]
127

Look up and report measured Percentage activation of beta 1 at given concentration for this entry: CC(C)(C(=O)O)c1ccc(C2CC23C(=O)Nc2cc(F)c(-c4ccc(-c5ccc(-n6cncn6)cc5)cc4)cc23)cc1 (stereo not shown) [Example 161]
115

Look up and report measured Percentage activation of beta 1 at given concentration for this entry: Cc1ccc(C2CC23C(=O)Nc2cc(F)c(-c4ccc(-c5ccc(-n6cncn6)cc5)cc4)cc23)cc1C(=O)O (stereo not shown) [Example 146]
78

Look up and report measured Percentage activation of beta 1 at given concentration for this entry: Cc1ccc(C2CC23C(=O)Nc2cc(F)c(-c4ccc(-c5ccc(-n6cccn6)cc5)cc4)cc23)cc1C(=O)O (stereo not shown) [Example 144]
118

Look up and report measured Percentage activation of beta 1 at given concentration for this entry: Cc1ccc(C2CC23C(=O)Nc2cc(F)c(-c4ccc(-c5ccc(-n6cccn6)cc5)cc4)cc23)cc1C(=O)O (stereo not shown) [Example 142]
89

Look up and report measured Percentage activation of beta 1 at given concentration for this entry: CC(C)(C(=O)O)c1ccc(C2CC23C(=O)Nc2cc(F)c(-c4ccc(-c5ccc(-n6cncn6)cc5)cc4)cc23)cc1 (stereo not shown) [Example 163]
131

Look up and report measured Percentage activation of beta 1 at given concentration for this entry: Cc1ccc(C2CC23C(=O)Nc2cc(Cl)c(-c4ccc(-c5ccc(-n6cncn6)cc5)cc4)cc23)cc1C(=O)O (stereo not shown) [Example 119]
99

More entries:
Look up and report measured Percentage activation of beta 1 at given concentration for this entry: Cc1ccc(C2CC23C(=O)Nc2cc(F)c(-c4ccc(-c5ccc(-n6cncn6)cc5)cc4)cc23)cc1C(=O)O (stereo not shown) [Example 145]
67

Look up and report measured Percentage activation of beta 1 at given concentration for this entry: Cc1ccc(C2CC23C(=O)Nc2cc(Cl)c(-c4ccc(-c5ccc(-n6cncn6)cc5)cc4)cc23)cc1C(=O)O (stereo not shown) [Example 117]
165

Look up and report measured Percentage activation of beta 1 at given concentration for this entry: Cc1ccc(C2CC23C(=O)Nc2cc(Cl)c(-c4ccc(-c5ccc(-n6cncn6)cc5)c(F)c4)cc23)cc1C(=O)O (stereo not shown) [Example 151]
25

Look up and report measured Percentage activation of beta 1 at given concentration for this entry: Cc1ccc(C2CC23C(=O)Nc2cc(Cl)c(-c4ccc(-c5ccc(-n6ccnn6)cc5)cc4)cc23)cc1C(=O)O (stereo not shown) [Example 134]
123

Look up and report measured Percentage activation of beta 1 at given concentration for this entry: Cc1ccc(C2CC23C(=O)Nc2cc(F)c(-c4ccc(-c5ccc(-n6cncn6)cc5)cc4)cc23)cc1C(=O)O (stereo not shown) [Example 147]
32

Look up and report measured Percentage activation of beta 1 at given concentration for this entry: Cc1ccc(C2CC23C(=O)Nc2cc(Cl)c(-c4ccc(-c5ccc(-n6ccnn6)cc5)cc4)cc23)cc1C(=O)O (stereo not shown) [Example 135]
97

Look up and report measured Percentage activation of beta 1 at given concentration for this entry: Cc1ccc(C2CC23C(=O)Nc2cc(Cl)c(-c4ccc(-c5ccc(-n6cncn6)cc5)cc4)cc23)cc1C(=O)O (stereo not shown) [Example 115]
132

Look up and report measured Percentage activation of beta 1 at given concentration for this entry: Cc1ccc(C2CC23C(=O)Nc2cc(Cl)c(-c4ccc(-c5ccc(-n6cncn6)cc5)c(F)c4)cc23)cc1C(=O)O (stereo not shown) [Example 152]
95
